target: yeast α-glucosidase; experiment: α-glucosidase inhibition assay, dilution series for IC50 determination (PNPG substrate); settings: isolated compounds; means ± SD of triplicate experiments
Provide the recorded pIC50 for the entries that follow.
One number for each entry, as −log10 of the molar value.

Observe how each entry below is paired with its result.
smiles.data	measurement.target	reading
COc1c(-c2ccc(O)c(O)c2)oc2cc(O)cc(O)c2c1=O	yeast α-glucosidase	4.69
CCCCOC(=O)[C@]1(O)C[C@@H](OC(=O)/C=C/c2ccc(O)c(O)c2)[C@@H](O)[C@H](OC(=O)/C=C/c2ccc(O)c(O)c2)C1	yeast α-glucosidase	5.23
CCCCOC(=O)[C@]1(O)C[C@@H](O)[C@@H](OC(=O)/C=C/c2ccc(O)c(O)c2)[C@H](OC(=O)/C=C/c2ccc(O)c(O)c2)C1	yeast α-glucosidase	5.28

// next item, pIC50 requested
# input Consider the compound shown here: `O=c1cc(-c2ccc(O)c(O)c2)oc2cc(O)cc(O)c12` What is its recorded pIC50?
# output 4.22

###

system: α-glucosidase; assay: High-resolution α-glucosidase inhibition profiling (biochromatogram) of HPLC microfractions; format: biochemical, Saccharomyces cerevisiae; design: concentration or dose not given beside the values; conditions: microfractionation of fraction Fr.2 on PFP column; relative inhibition, quantity unknown
reported.endpoint: α-glucosidase inhibitory activity of peak in biochromatogram
The answer should read as a number with its unit following.

// below: answered compounds
compound	reading
O=c1c(O)c(-c2ccc(O)c(O)c2)oc2cc(O)cc(O)c12 [Compound 16, quercetin]	82%
O=c1cc(-c2ccc(O)c(O)c2)oc2cc(O)cc(O)c12 [Compound 19, luteolin]	32%
O=C(/C=C/c1ccc(O)cc1)OC[C@H]1O[C@@H](Oc2c(-c3ccc(O)cc3)oc3cc(O)cc(O)c3c2=O)[C@H](O)[C@@H](O)[C@@H]1O [Compound 17, trans-tiliroside]	23%

Here is another compound to look at.
# input Dear colleague, I am looking for the recorded α-glucosidase inhibitory activity of peak in biochromatogram of the following compound: COc1c(-c2ccc(O)c(O)c2)oc2cc(O)cc(O)c2c1=O [Compound 20, quercetin 3-methyl ether]
# output 70%
